Data provenance: paper PMC6277434

# Measured target: HMGCR (TM1-8)-GFP (Cricetulus griseus, UniProt P00347)
# Assay comment: HMGCR (TM1-8)-GFP fluorescent assay (high-content imaging) in CHG cells
# Test conditions: read-out: Mean (HMGCR (TM1-8)-GFP signal relative to 0 μM = 100)
I'd be grateful if you could share measured remaining activity at 10 µM for these entries.

Consider the reported remaining activity at 10 µM for these compounds:
> print(dat)
                                   compound                           measured.target  result
1  CC(O)CCCC[C@@H](C)C1CCC2C3C(CC[C@@]21C)[C@@]1(C)CC[C@H](O)C(C)(C)C1=C[C@@H]3O (stereo partly drawn) [Compound 107]  HMGCR (TM1-8)-GFP (Cricetulus griseus, UniProt P00347)   13.1%
2  CCC(O)(CC)CC[C@@H](C)C1CCC2C3C(CC[C@@]21C)[C@@]1(C)CC[C@H](O)C(C)(C)C1=C[C@@H]3O (stereo partly drawn) [Compound 57]  HMGCR (TM1-8)-GFP (Cricetulus griseus, UniProt P00347)   23.7%
3  C=CCC(O)(CC=C)CC[C@@H](C)C1CCC2C3C(CC[C@@]21C)[C@@]1(C)CC[C@H](O)C(C)(C)C1=C[C@@H]3O (stereo partly drawn) [Compound 58]  HMGCR (TM1-8)-GFP (Cricetulus griseus, UniProt P00347)   25.3%
4  CCC(O)(CC)CCCCC[C@@H](C)C1CCC2C3C(CC[C@@]21C)[C@@]1(C)CC[C@H](O)C(C)(C)C1=C[C@@H]3O (stereo partly drawn) [Compound 118]  HMGCR (TM1-8)-GFP (Cricetulus griseus, UniProt P00347)   21.8%
5  C[C@H](CCC(C)(C)O)C1CCC2C3C(CC[C@@]21C)[C@@]1(C)CC[C@H](O)C(C)(C)C1=C[C@@H]3O (stereo partly drawn) [Compound 56]  HMGCR (TM1-8)-GFP (Cricetulus griseus, UniProt P00347)   69.4%

Now for the compound whose remaining activity at 10 µM we want.
QUERY: Value lookup for remaining activity at 10 µM; key = CCC(O)CC[C@@H](C)C1CCC2C3C(CC[C@@]21C)[C@@]1(C)CC[C@H](O)C(C)(C)C1=C[C@@H]3O (stereo partly drawn) [Compound 64]
RESULT: 27%

---

# Measured target: HMGCR (TM1-8)-GFP (Cricetulus griseus, UniProt P00347)
# Sequence (P00347 1-346): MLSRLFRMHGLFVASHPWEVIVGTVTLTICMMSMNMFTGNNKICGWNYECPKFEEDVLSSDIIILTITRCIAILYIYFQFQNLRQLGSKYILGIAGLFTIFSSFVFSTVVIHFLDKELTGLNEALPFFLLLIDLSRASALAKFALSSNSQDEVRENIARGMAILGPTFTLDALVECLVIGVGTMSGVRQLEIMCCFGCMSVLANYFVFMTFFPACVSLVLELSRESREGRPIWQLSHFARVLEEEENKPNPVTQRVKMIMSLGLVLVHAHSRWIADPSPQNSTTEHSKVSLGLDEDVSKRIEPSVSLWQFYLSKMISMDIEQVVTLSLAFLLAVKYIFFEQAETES
# Assay comment: HMGCR (TM1-8)-GFP fluorescent assay (high-content imaging) in CHG cells
# Test conditions: read-out: Mean (HMGCR (TM1-8)-GFP signal relative to 0 μM = 100)
# label = MET if remaining activity at 5 µM < 30% else NOT MET

> print(dat)
                                   compound  label.value
1  C=CCC(O)CC[C@@H](C)C1CCC2C3C(CC[C@@]21C)[C@@]1(C)CC[C@H](O)C(C)(C)C1=C[C@@H]3O (stereo partly shown)          MET

QUERY: Item CCC(O)CC[C@@H](C)C1CCC2C3C(CC[C@@]21C)[C@@]1(C)CC[C@H](O)C(C)(C)C1=C[C@@H]3O (stereo partly shown) : remaining activity at 5 µM beneath 30%, strictly?
RESULT: NOT MET

QUERY: Just wondering, is remaining activity at 5 µM of C[C@H](CCCC(C)(C)O)C1CCC2C3C(CC[C@@]21C)[C@@]1(C)CC[C@H](O)C(C)(C)C1=C[C@@H]3O (stereo partly shown) below 30%?
RESULT: MET
